# System tested: T1, phage-displayed peptide clone 1 (FHAPPSKPPLPK)
# T1 construct: 12-residue peptide selected from a degenerate library; also called phage clone 1; source: M13 phage stock (Ph.D.-12 Phage Display Peptide Library, New England Biolabs), selected by panning
# T1 peptide: FHAPPSKPPLPK
# Assay overview: ELISA; competitive displacement of phage clone 1 (5.5·10^10 pfu) bound to immobilised GST-CAS SH3 (100 µl of 20 µg/ml per well) by free GST-CAS SH3 in TBST (1-800 µg/ml); anti-M13-HRP
# Assay setup: one partner purified
Measure name: pEC50
Give bare numbers, as −log10 of the molar value.

Asked: Answer with reported pEC50 of GST-fused CAS SH3 domain (domain or fragment, mouse, UniProt Q61140 3-65, looked up, Crk-associated substrate (CAS), mouse, SH3 domain; also called GST-CAS SH3; GST-SH3; source: E. coli BL21 (DE3), pGEX-2TK, purified (glutathione agarose); not shown: GST, N-terminal, kept) VPNVLAKALYDNVAESPDELSFRKGDIMTVLERDTQGLDGWWLCSLHGRQGIVPGNRLKILVG
Given back: 6.44
